test_target: calmodulin (CaM), full-length, amino acids 2-148 (human, UniProt P0DP23 2-148)
procedure_details: ITC
Where no end group is shown, it is not given here. The star is where a group is joined. Farnesyl = CC(C)=CCC/C(C)=C/CC/C(C)=C/C*
test_readout: Kd

# Kd (binder: HKEKMSKDGKKKKKKSKTKC(Farnesyl)-OMe [HVR-FMe (hypervariable region of KRAS4b, farnesylated and carboxy-methylated)] ) is 300 nM
